Tested on: Staphylococcus aureus
Experiment: Antibacterial activity against Staphylococcus aureus 011HT3
Format: functional
quantity.measured: MIC

Form field: reported MIC of C#CCONC(=O)O[C@H]1[C@@H](O)[C@H](Oc2ccc3c(O)c(/C(C)=N/OCc4ccsc4)c(=O)oc3c2C)OC(C)(C)[C@@H]1OC
< 0.04 µg/mL

Form field: reported MIC of C#CCONC(=O)O[C@H]1[C@@H](O)[C@H](Oc2ccc3c(O)c(C(=O)NCCO)c(=O)oc3c2C)OC(C)(C)[C@@H]1OC
< 0.04 µg/mL

Form field: reported MIC of C#CCONC(=O)O[C@H]1[C@@H](O)[C@H](Oc2ccc3c(=O)c(C(=O)OCC)c(O)oc3c2C)OC(C)(C)[C@@H]1OC
1.2 µg/mL

Form field: reported MIC of CO[C@@H]1[C@@H](OC(N)=O)[C@@H](O)[C@H](Oc2ccc3c(O)c(NC(=O)c4ccc(O)c(CC=C(C)C)c4)c(=O)oc3c2C)OC1(C)C
< 0.04 µg/mL

Form field: reported MIC of C#CCONC(=O)O[C@H]1[C@@H](O)[C@H](Oc2ccc3c(O)c(C(C)=O)c(=O)oc3c2C)OC(C)(C)[C@@H]1OC
< 0.04 µg/mL

Form field: reported MIC of C#CCONC(=O)O[C@H]1[C@@H](O)[C@H](Oc2ccc3c(O)c(/C(C)=N/OCCN4CCOCC4)c(=O)oc3c2C)OC(C)(C)[C@@H]1OC
0.15 µg/mL

Form field: reported MIC of C=CCNC(=O)O[C@H]1[C@@H](O)[C@H](Oc2ccc3c(=O)c(C(=O)OCC)c(O)oc3c2C)OC(C)(C)[C@@H]1OC
> 40 µg/mL

Form field: reported MIC of C#CCONC(=O)O[C@H]1[C@@H](O)[C@H](Oc2ccc3c(O)c(C(N)=O)c(=O)oc3c2C)OC(C)(C)[C@@H]1OC
< 0.04 µg/mL

Form field: reported MIC of C#CCONC(=O)O[C@H]1[C@@H](O)[C@H](Oc2ccc3c(O)c(C(=O)NCCN4CCOCC4)c(=O)oc3c2C)OC(C)(C)[C@@H]1OC
< 0.04 µg/mL

Form field: reported MIC of CO/N=C(\C)c1c(O)oc2c(C)c(O[C@@H]3OC(C)(C)[C@H](OC)[C@@H](OC(=O)c4ccc(C)[nH]4)[C@H]3O)ccc2c1=O
0.15 µg/mL

Form field: reported MIC of C#CCNC(=O)O[C@H]1[C@@H](O)[C@H](Oc2ccc3c(=O)c(C(=O)OCC)c(O)oc3c2C)OC(C)(C)[C@@H]1OC
40 µg/mL

Form field: reported MIC of CCOC(=O)c1c(O)oc2c(C)c(O[C@@H]3OC(C)(C)[C@H](OC)[C@@H](OC(=O)NOC)[C@H]3O)ccc2c1=O
> 40 µg/mL

Form field: reported MIC of C#CCONC(=O)O[C@H]1[C@@H](O)[C@H](Oc2ccc3c(=O)c(C(=O)NOCC)c(O)oc3c2C)OC(C)(C)[C@@H]1OC
< 0.04 µg/mL

====

Assay: In vitro activity against Staphylococcus aureus DNA gyrase subunit B supercoiling, expressed as IC50 novobiocin / IC50 compound
Format: functional
Class yes: Ratio at least 3. Class no: Ratio below 3.

Can C#CCONC(=O)O[C@H]1[C@@H](O)[C@H](Oc2ccc3c(O)c(C(=O)NCCO)c(=O)oc3c2C)OC(C)(C)[C@@H]1OC be said to have Ratio at or above 3?
no

Can C#CCONC(=O)O[C@H]1[C@@H](O)[C@H](Oc2ccc3c(O)c(C(=O)NCCN4CCOCC4)c(=O)oc3c2C)OC(C)(C)[C@@H]1OC be said to have Ratio at or above 3?
no

Can C#CCONC(=O)O[C@H]1[C@@H](O)[C@H](Oc2ccc3c(O)c(/C(C)=N/OCCN4CCOCC4)c(=O)oc3c2C)OC(C)(C)[C@@H]1OC be said to have Ratio at or above 3?
yes

Can C#CCONC(=O)O[C@H]1[C@@H](O)[C@H](Oc2ccc3c(=O)c(C(=O)NOCC)c(O)oc3c2C)OC(C)(C)[C@@H]1OC be said to have Ratio at or above 3?
yes

Can C#CCONC(=O)O[C@H]1[C@@H](O)[C@H](Oc2ccc3c(=O)c(C(=O)NOC)c(O)oc3c2C)OC(C)(C)[C@@H]1OC be said to have Ratio at or above 3?
yes

Can C#CCONC(=O)O[C@H]1[C@@H](O)[C@H](Oc2ccc3c(O)c(C(=O)NOCC=C(C)C)c(=O)oc3c2C)OC(C)(C)[C@@H]1OC be said to have Ratio at or above 3?
no

Can C#CCONC(=O)O[C@H]1[C@@H](O)[C@H](Oc2ccc3c(=O)c(/C(C)=N/OCC)c(O)oc3c2C)OC(C)(C)[C@@H]1OC be said to have Ratio at or above 3?
yes
